Cited source: paper PMC12416549

Molecular target: T1, TNFR1 (Homo sapiens, UniProt P19438)
T1 chain: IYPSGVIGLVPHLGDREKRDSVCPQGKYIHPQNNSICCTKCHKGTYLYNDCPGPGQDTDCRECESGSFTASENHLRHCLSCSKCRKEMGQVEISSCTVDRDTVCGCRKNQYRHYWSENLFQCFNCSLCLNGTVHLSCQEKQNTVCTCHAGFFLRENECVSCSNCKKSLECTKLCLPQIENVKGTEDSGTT
Experiment: yeast display SC50
Answer not satisfied if apparent Kd (screen) is under 0.7 nM, and satisfied if it is 0.7 nM or more.

Consider the worked cases shown below.
[
  {
    "BINDER": "Q4E (designed binder) MTLEELLREEALRRAEAEAFRYALELLAEKFPEQKEYLLDLAEEIESQIRSLSGVDVEDVRKFLDKEWAWVKELLAEHPAELAEVEAARAARLAELRAEVEAKVAA",
    "CLASS_NAME": "satisfied"
  },
  {
    "BINDER": "K66A (designed binder) MTLQELLREEALRRAEAEAFRYALELLAEKFPEQKEYLLDLAEEIESQIRSLSGVDVEDVRKFLDAEWAWVKELLAEHPAELAEVEAARAARLAELRAEVEAKVAA",
    "CLASS_NAME": "not satisfied"
  },
  {
    "BINDER": "K30C (designed binder) MTLQELLREEALRRAEAEAFRYALELLAECFPEQKEYLLDLAEEIESQIRSLSGVDVEDVRKFLDKEWAWVKELLAEHPAELAEVEAARAARLAELRAEVEAKVAA",
    "CLASS_NAME": "not satisfied"
  }
]

Ask: Hi team, for Q4V (designed binder) MTLVELLREEALRRAEAEAFRYALELLAEKFPEQKEYLLDLAEEIESQIRSLSGVDVEDVRKFLDKEWAWVKELLAEHPAELAEVEAARAARLAELRAEVEAKVAA , is the recorded apparent Kd (screen) at or above 0.7 nM?
Reply: not satisfied

Ask: Is the recorded value of apparent Kd (screen) equal to or greater than 0.7 nM for this binder? Q48C (designed binder) MTLQELLREEALRRAEAEAFRYALELLAEKFPEQKEYLLDLAEEIESCIRSLSGVDVEDVRKFLDKEWAWVKELLAEHPAELAEVEAARAARLAELRAEVEAKVAA
Reply: satisfied

Ask: Is it the case that V71C (designed binder) MTLQELLREEALRRAEAEAFRYALELLAEKFPEQKEYLLDLAEEIESQIRSLSGVDVEDVRKFLDKEWAWCKELLAEHPAELAEVEAARAARLAELRAEVEAKVAA has apparent Kd (screen) reaching or exceeding 0.7 nM?
Reply: not satisfied

Ask: Could you please find out whether I49W (designed binder) MTLQELLREEALRRAEAEAFRYALELLAEKFPEQKEYLLDLAEEIESQWRSLSGVDVEDVRKFLDKEWAWVKELLAEHPAELAEVEAARAARLAELRAEVEAKVAA has apparent Kd (screen) that meets 0.7 nM or exceeds it?
Reply: satisfied
